tested_on: Pirin (Homo sapiens)
Construct: recombinant human pirin (Abcam, ab123170)
Sequence (O00625 whole entry): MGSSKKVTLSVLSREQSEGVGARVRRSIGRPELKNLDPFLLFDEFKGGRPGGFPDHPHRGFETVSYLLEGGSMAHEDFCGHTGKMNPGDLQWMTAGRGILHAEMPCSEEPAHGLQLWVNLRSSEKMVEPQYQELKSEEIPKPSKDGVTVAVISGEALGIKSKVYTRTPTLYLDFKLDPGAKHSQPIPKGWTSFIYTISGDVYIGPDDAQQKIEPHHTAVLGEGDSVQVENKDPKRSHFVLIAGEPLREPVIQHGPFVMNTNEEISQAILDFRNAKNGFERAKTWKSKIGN
run_description: SPR (Biacore T200), steady state; also TPP-PISA stabilization in extracts
endpoint_label: Kd

Incoming: // lookup Kd for CC(C)Cc1ccc(C(C)C(=O)O)cc1 (stereo not shown)
Outgoing: ~546 µM

Sourced from paper PMC11484808
